Target: USP8 (Homo sapiens, UniProt P40818)
Construct: (1-1118); purchased Ubiquigent 64-0053-050
Sequence (P40818 1-1118): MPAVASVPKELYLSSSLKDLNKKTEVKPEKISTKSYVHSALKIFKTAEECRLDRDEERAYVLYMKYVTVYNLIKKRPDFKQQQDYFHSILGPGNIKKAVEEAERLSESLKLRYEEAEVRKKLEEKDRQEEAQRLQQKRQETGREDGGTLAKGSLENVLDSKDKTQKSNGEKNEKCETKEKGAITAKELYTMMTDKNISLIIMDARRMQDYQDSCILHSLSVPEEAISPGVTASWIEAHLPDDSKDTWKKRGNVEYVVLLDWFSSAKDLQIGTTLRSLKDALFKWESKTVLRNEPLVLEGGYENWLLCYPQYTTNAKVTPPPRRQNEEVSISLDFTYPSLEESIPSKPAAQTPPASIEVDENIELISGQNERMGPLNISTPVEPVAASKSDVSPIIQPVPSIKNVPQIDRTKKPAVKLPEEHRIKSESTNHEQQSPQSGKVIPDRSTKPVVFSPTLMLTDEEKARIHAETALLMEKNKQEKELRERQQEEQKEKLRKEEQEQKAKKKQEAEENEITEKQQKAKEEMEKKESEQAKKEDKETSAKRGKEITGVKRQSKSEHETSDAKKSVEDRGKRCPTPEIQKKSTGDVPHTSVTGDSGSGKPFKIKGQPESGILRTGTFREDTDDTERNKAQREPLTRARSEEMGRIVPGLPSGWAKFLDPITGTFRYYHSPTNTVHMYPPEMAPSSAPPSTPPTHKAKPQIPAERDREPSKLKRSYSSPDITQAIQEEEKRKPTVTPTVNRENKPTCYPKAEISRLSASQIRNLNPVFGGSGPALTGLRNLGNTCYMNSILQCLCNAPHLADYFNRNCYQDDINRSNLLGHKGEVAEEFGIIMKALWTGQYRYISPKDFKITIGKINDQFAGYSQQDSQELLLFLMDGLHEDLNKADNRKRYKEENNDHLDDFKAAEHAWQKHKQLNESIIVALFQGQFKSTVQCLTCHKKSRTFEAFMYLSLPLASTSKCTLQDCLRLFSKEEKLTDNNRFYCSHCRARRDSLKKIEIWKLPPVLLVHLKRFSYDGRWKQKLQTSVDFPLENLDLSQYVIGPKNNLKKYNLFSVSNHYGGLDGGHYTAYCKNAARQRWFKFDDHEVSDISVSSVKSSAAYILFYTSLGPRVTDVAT
Test: High-throughput screening, Ub-RhoMP, single dose 1.25 µM
Type: biochemical
Settings: crude in-plate synthesized compound, 1.25 µM assuming full conversion
endpoint: %inhibition USP8 (%)

>>> quantitativereadout("N#CN1CC[C@@H](NC(=O)C(Cc2c[nH]cn2)NS(=O)(=O)c2ccc(Cl)cc2)C1 (some centres unmarked) [BB01CA91]")
28.4
>>> quantitativereadout("N#CN1CC[C@@H](NC(=O)CCN(Cc2ccccc2)S(=O)(=O)c2c(Cl)cccc2Cl)C1 [BB01CA93]")
33.0
>>> quantitativereadout("N#CN1CC[C@@H](NC(=O)c2nc(N3CCCC3)ncc2Cl)C1 [BB01CA90]")
29.2
>>> quantitativereadout("N#CN1CC[C@@H](NC(=O)Cc2csc(-c3cnccn3)n2)C1 [BB01CA92]")
32.5
>>> quantitativereadout("N#CN1CC[C@@H](NC(=O)c2ncoc2-c2cccs2)C1 [BB01CA94]")
24.1
